Biological target: P. fluorescens HPPD (Pseudomonas fluorescens, UniProt A0ACG8AE61)
Sequence (A0ACG8AE61 entry or part of it): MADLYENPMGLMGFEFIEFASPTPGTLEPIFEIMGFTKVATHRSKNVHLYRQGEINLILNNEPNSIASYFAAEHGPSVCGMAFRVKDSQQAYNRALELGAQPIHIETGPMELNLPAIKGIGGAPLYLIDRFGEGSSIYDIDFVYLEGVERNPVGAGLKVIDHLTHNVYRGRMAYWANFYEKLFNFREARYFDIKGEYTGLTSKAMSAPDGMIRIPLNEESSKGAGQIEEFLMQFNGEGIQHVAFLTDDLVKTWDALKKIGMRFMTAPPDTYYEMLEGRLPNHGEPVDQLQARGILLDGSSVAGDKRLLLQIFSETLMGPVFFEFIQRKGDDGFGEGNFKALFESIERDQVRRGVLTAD
Assay: Dissociation of enzyme/inhibitor complexes by exchange with 14C-labelled inhibitor (koff; Kd = koff/kon)
Type: binding
Details: Kd, without glycerol; Kd = koff/kon
REPORTED_METRIC: pKd
# pKd is unitless: minus log10 of the molar concentration; print number only

Return reported pKd; argument: CS(=O)(=O)c1ccc(C(=O)C2C(=O)CCCC2=O)c([N+](=O)[O-])c1 [Structure I, reference compound] 9.94

###

Target: P. fluorescens HPPD (Pseudomonas fluorescens)
Assay: Dissociation of enzyme/inhibitor complexes by exchange with 14C-labelled inhibitor (koff; Kd = koff/kon)
Assay type: binding
Conditions: value obtained + glycerol (in parentheses); read-out: Kd
REPORTED_METRIC: Kd (nM)
Field: numeric (nM). Do not append units.

Return reported Kd; argument: CS(=O)(=O)c1cc(C(F)(F)F)ccc1C(=O)C(C#N)C(=O)C1CC1 (stereo not shown) [Structure IV, reference compound] 1.1
